Record form. Attribute: Tox. Rank (4 = non-toxic). Fill in for each entry.
System: rat mesangial cells
MEASUREMENT PROTOCOL: Toxicity rank and cell condition observed in the proline incorporation assay
Type: cell-based
CONDITION LABEL: @100 uM
Description: A well-characterised cloned rat mesangial cell line (Kakizaki Y, Kraft N, Atkins R C: Differential control of mesangial cell proliferation by interferon-gamma. Clin Exp Immunol 85:157-163, 1991) was cultured in DMEM (5 mM glucose) with 5% FBS, 100U/mL penicillin, and 100 ug/mL streptomycin in humidified 5% CO2 atmosphere at 37 C. Cells were used up to passage 40. Cells were plated into 24-well culture dishes in DMEM/5% FBS and allowed to adhere overnight. […]

The cases that follow already have their Tox. Rank (4 = non-toxic) on record.
1. COc1ccc(/C=C/c2nc3ccccc3[nH]2)cc1OC | 1@100 uM
2. COc1ccc(/C=C/C(=O)N2CCOc3ccccc32)cc1OC | 1@100 uM
3. COc1ccc(/C=C/c2nc3c(C(=O)O)cccc3o2)cc1OC | 3@100 uM
4. COc1cc2c(cc1OC)S(=O)(=O)C(C(=O)Nc1ccccc1C(=O)O)=C2 | 3@100 uM
5. COc1cc2c(cc1OC)CCC(C(=O)Nc1ccccc1C(=O)O)=C2 | 1@100 uM
6. COc1cc2c(cc1OC)CC(C(=O)Nc1ccccc1C(=O)O)CC2 (centres unmarked) | 2@100 uM

Dear colleague, could you please provide Tox. Rank (4 = non-toxic) for the compounds listed below?
1. COc1ccc(/C=C/c2nc3ccccc3c(=O)o2)cc1OC
2. COc1ccc(/C=C/c2nc3ccccc3c(=O)o2)cc1OC(C)=O

1. 1@100 uM
2. 3@100 uM

====

Test system: rat mesangial cells
MEASUREMENT PROTOCOL: Toxicity rank and cell condition observed in the proline incorporation assay
Assay type: cell-based
CONDITION LABEL: @30 uM
Record form. Attribute: Tox. Rank (4 = non-toxic). Fill in for each entry.

Dear colleague, could you please provide Tox. Rank (4 = non-toxic) for the molecules listed below?
1. COc1ccc(/C=C/c2nc3ccccc3c(=O)o2)cc1OC [FT106]
2. COc1ccc(/C=C/C(=O)N2CCOc3ccccc32)cc1OC [FT122]
3. COc1cc2c(cc1OC)CCC(C(=O)Nc1ccccc1C(=O)O)=C2 [FT129]
4. COc1ccc(/C=C/c2nc3ccccc3[nH]2)cc1OC [FT121]

1. 2@30 uM
2. 4@30 uM
3. 2@30 uM
4. 3@30 uM

====

Record form. Attribute: melting point. Fill in for each entry.

1. O=c1oc(/C=C/c2ccc(OC(F)F)c(OC(F)F)c2)nc2ccccc12 [FT108] | 113 to 115 °C

Dear colleague, could you please provide melting point for the molecules listed below?
1. COc1cc(/C=C/c2nc3ccccc3c(=O)o2)ccc1OC(C)=O [FT109]
2. C#CCOc1ccc(/C=C/c2nc3ccccc3c(=O)o2)cc1OC [FT107]
3. COc1ccc(/C=C/C2=NS(=O)(=O)c3ccccc3N2)cc1OC [FT98]
4. COc1ccc(/C=C/C(=O)N2CCc3ccccc32)cc1OC [FT113]
5. COc1ccc(/C=C/c2nc3ncccc3c(=O)o2)cc1OC [FT102]

185 to 186 °C
177 to 178 °C
276 to 279 °C
118 to 120 °C
228 to 231 °C

====

System: rat mesangial cells
MEASUREMENT PROTOCOL: Toxicity rank and cell condition observed in the proline incorporation assay
Format: cell-based
CONDITION LABEL: 100 μM
MEASUREMENT NAME: Cell condition observed (sick, dead, some death, cells elongated)

The cases that follow already have their Cell condition observed (sick, dead, some death, cells elongated) on record.
1) COc1ccc(/C=C/C(=O)N2CC(=O)Nc3ccccc32)cc1OC [FT125] | sick
2) COc1ccc(/C=C/c2nc3ccccc3c(=O)o2)cc1OC [FT106] | dead
3) COc1ccc(/C=C/C(=O)N2CCOc3ccccc32)cc1OC [FT122] | dead
4) COc1ccc(/C=C/c2nc3ccccc3[nH]2)cc1OC [FT121] | dead

Consider the record given below.
What value of measured Cell condition observed (sick, dead, some death, cells elongated) is listed for COc1ccc(/C=C/C(=O)n2c(=O)n(C)c3ccccc32)cc1OC [FT123] ? dead

====

Record form. Attribute: Tox. Rank (4 = non-toxic). Fill in for each entry.
Test system: rat mesangial cells
MEASUREMENT PROTOCOL: Toxicity rank and cell condition observed in the proline incorporation assay
Format: cell-based
Design: key: (4 = non-toxic)
CONDITION LABEL: no concentration stated
Procedure: A well-characterised cloned rat mesangial cell line (Kakizaki Y, Kraft N, Atkins R C: Differential control of mesangial cell proliferation by interferon-gamma. Clin Exp Immunol 85:157-163, 1991) was cultured in DMEM (5 mM glucose) with 5% FBS, 100U/mL penicillin, and 100 ug/mL streptomycin in humidified 5% CO2 atmosphere at 37 C. Cells were used up to passage 40. Cells were plated into 24-well culture dishes in DMEM/5% FBS and allowed to adhere overnight. […]
Give bare numbers.

The cases that follow already have their Tox. Rank (4 = non-toxic) on record.
1) COc1ccc(/C=C/c2nc3ncccc3c(=O)o2)cc1OC [FT102] | 4
2) COc1cc(/C=C/c2nc3ccccc3c(=O)o2)ccc1OC(C)=O [FT109] | 4
3) COc1ccc(/C=C/C(=O)N2CCc3ccccc32)cc1OC [FT113] | 4
4) COc1ccc(/C=C/C(=O)n2c(=O)oc3ccccc32)cc1OC [FT124] | 2
5) COc1cc2nc(C(=O)Nc3ccccc3C(=O)O)[nH]c2cc1OC [FT127] | 4

Dear colleague, could you please provide Tox. Rank (4 = non-toxic) for the molecules listed below?
1. COc1cc2c(cc1OC)CC(C(=O)Nc1ccccc1C(=O)O)=C2 [FT126]
2. COc1ccc(/C=C/C2=NS(=O)(=O)c3ccccc3N2)cc1OC [FT98]

1: 4; 2: 4

====

System: rat mesangial cells
MEASUREMENT PROTOCOL: Toxicity rank and cell condition observed in the proline incorporation assay
Assay type: cell-based
CONDITION LABEL: 100 μM
MEASUREMENT NAME: Cell condition observed (sick, dead, some death, cells elongated)

1. COc1cc2c(cc1OC)S(=O)(=O)C(C(=O)Nc1ccccc1C(=O)O)=C2 [FT128] | (some death)
2. COc1cc2c(cc1OC)CCC(C(=O)Nc1ccccc1C(=O)O)=C2 [FT129] | dead
3. COc1ccc(/C=C/c2nc3c(C(=O)O)cccc3o2)cc1OC [FT132] | (some death)
4. COc1ccc(/C=C/C(=O)n2c(=O)oc3ccccc32)cc1OC [FT124] | sick

====

Record form. Attribute: inhibition at 10 µM. Fill in for each entry.
Test system: rat mesangial cells
MEASUREMENT PROTOCOL: Proline incorporation assay: reduction of TGF-beta 1 stimulated proline incorporation
Type: cell-based
CONDITION LABEL: Mesangial cell, 44 h, 10 μM compound, TGF-beta 1 5 ng/mL, read-out: Percentage Reduction of TGF-Beta 1 Stimulated Proline Incorporation
Procedure: A well-characterised cloned rat mesangial cell line (Kakizaki Y, Kraft N, Atkins R C: Differential control of mesangial cell proliferation by interferon-gamma. Clin Exp Immunol 85:157-163, 1991) was cultured in DMEM (5 mM glucose) with 5% FBS, 100U/mL penicillin, and 100 ug/mL streptomycin in humidified 5% CO2 atmosphere at 37 C. Cells were used up to passage 40. Proline Incorporation Assay Cells were plated into 24-well culture dishes in DMEM/5% FBS and allowed to adhere overnight. […]
Answers are plain numbers, in %.

1) COc1ccc(/C=C/C(=O)n2c(=O)oc3ccccc32)cc1OC [FT124] | 0

Consider the record given below.
What value of measured inhibition at 10 µM is listed for COc1cc2nc(C(=O)Nc3ccccc3C(=O)O)[nH]c2cc1OC [FT127] ? 0

====

Test system: rat mesangial cells
MEASUREMENT PROTOCOL: Proline incorporation assay: reduction of TGF-beta 1 stimulated proline incorporation
Type: cell-based
CONDITION LABEL: Mesangial cell, 44 h, 10 μM compound, TGF-beta 1 5 ng/mL, read-out: Percentage Reduction of TGF-Beta 1 Stimulated Proline Incorporation
MEASUREMENT NAME: inhibition at 10 µM

1) COc1ccc(/C=C/c2nc3ccccc3[nH]2)cc1OC | ~60%

Dear colleague, could you please provide inhibition at 10 µM for the compounds listed below?
1. COc1ccc(/C=C/C(=O)N2CCOc3ccccc32)cc1OC
2. COc1cc2c(cc1OC)CC(C(=O)Nc1ccccc1C(=O)O)=C2
3. COc1cc2c(cc1OC)S(=O)(=O)C(C(=O)Nc1ccccc1C(=O)O)=C2
4. COc1ccc(/C=C/c2nc3c(C(=O)O)cccc3o2)cc1OC

1. ~25%
2. ~55%
3. ~20%
4. ~2%

Where do these numbers come from? They come from patent US9951087B2.
